# Protocol description: soluble on expression in E. coli; label from the status in PepcDB or PDB records

| Chain | soluble on expression in E. coli |
| --- | --- |
| MGSDKIHHHHHHMSDSFDVLWLNASPILKRFDKPLLDYLSGYMRIAQWEYQQTKDEASSIDQAVELLHNFLEWRDRPVHLAGHGMSGAIALTFARRFPQKVRSLTLLSVAAQPANNWQAHYYFQRQLFSISRELVLASTVRSLFGNQPPHTTKKLVAALDKDLEQSPSQHSLFKLVYLPKGGVSMPMMVCGSKSDPVVNPTVLHDWLNWLKPEDKLWECPQGYHFFHYFYPQQVGEEILSFWKRHPSHLLEASALSFSTSTN | not soluble |
| MLSCRDLVIRQGGKVLWQNLTFTISAGERVGIHAPSGTGKTTLGRVLAGWQKPTAGDVLLDGSPLPLHQYCPVQLVPQHPELTFNPWRSAGDAVRDAWQPDPETMRRLHVQPEWLTRRPMQLSGGELARIAILRALDPRTRFLIADEMTAQLDPSIQKAIWVYVLEVCRSRSLGMLVISHQSALLDQVCTRHLQVE | not soluble |
